ASSAY_OVERVIEW: Protein binding in mouse brain homogenates
Type: in vitro ADME

| COMPOUND | RELATIONAL_OPERATOR | LogK |
| --- | --- | --- |
| CCCc1nc2c(C)cc(-c3nc4ccccc4n3C)cc2n1Cc1ccc(-c2ccccc2C(=O)O)cc1 [Telmisartan, reference compound] | = | 1.72 |
| Cn1cc(-c2cc(Cl)c(Cl)c3nc4c(n23)CN(C(=O)CO)CC4)cn1 [Compound 99] | = | 0.64 |
| Cn1cc(-c2cc(Cl)c(Cl)c3sc4c(c23)CCN(C(=O)CN)C4)cn1 [Compound 74] | = | 1.12 |
| Cn1cc(-c2cc(Cl)c(Cl)c3sc4c(c23)CN(C(=O)CO)CC4)cn1 [Compound 48] | > | 4.17 |
| O=C(CO)N1CCc2c(sc3c(Cl)c(Cl)cc(-c4cn[nH]c4)c23)C1 [Compound 63] | > | 4.72 |
| Cn1cc(-c2cc(Cl)c(Cl)c3oc4c(c23)CN(C(=O)CN)CC4)cn1 [Compound 33] | > | 4.39 |
| Cn1c2c(c3ccc(Cl)c(F)c31)CN(C(=O)CO)CC2 [TDI-6570, reference compound] | = | 2.38 |

* * *

Reported inhibition at 1 µM values for the following compounds.
TARGET_OF_ASSAY: h-cGAS (Homo sapiens, UniProt Q8N884)
Sequence (Q8N884 whole entry): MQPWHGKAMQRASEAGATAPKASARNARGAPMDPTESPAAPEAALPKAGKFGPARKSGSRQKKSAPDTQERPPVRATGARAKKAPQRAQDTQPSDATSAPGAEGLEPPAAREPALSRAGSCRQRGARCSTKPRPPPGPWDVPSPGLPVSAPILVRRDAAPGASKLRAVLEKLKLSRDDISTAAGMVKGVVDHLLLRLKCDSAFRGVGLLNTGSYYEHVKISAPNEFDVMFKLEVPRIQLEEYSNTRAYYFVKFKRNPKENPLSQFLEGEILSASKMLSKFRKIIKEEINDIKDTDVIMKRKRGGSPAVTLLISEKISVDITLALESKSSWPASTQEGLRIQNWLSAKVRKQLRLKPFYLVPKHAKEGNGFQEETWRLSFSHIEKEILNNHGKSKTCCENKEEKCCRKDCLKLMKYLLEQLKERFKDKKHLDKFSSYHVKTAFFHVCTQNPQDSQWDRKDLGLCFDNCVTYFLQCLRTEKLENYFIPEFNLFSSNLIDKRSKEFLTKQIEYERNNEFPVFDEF
ASSAY_OVERVIEW: Cell-free human cGAS enzyme inhibition assay (ATP depletion, Kinase-Glo Max)
Format: biochemical
EXPERIMENTAL_PARAMETERS: 3 h; read-out: h-cGAS, conc. 1 μM

| COMPOUND | inhibition at 1 µM |
| --- | --- |
| CNc1ccc(-c2cc(Cl)c(Cl)c3sc4c(c23)CCN(C(=O)CN)C4)cn1 [Compound 76] | 0 to 24% |
| O=C(CO)N1CCc2sc3c(Cl)c(Cl)cc(-c4cncnc4)c3c2C1 [Compound 47] | 0 to 24% |
| Cn1cc(-c2cc(Cl)c(Cl)c3sc4c(c23)CCN(C(=O)CN)C4)cn1 [Compound 74] | 0 to 24% |
| NCC(=O)N1CCc2c(sc3c(Cl)c(Cl)cc(-c4cncnc4)c23)C1 [Compound 73] | 0 to 24% |
| O=C(CO)N1CCc2oc3c(Cl)c(Cl)cc(-c4nccs4)c3c2C1 [Compound 31] | 50 to 74% |
| NCC(=O)N1CCc2c(sc3c(Cl)c(Cl)cc(-c4ccsc4)c23)C1 [Compound 82] | 0 to 24% |
| CC(C)(N)C(=O)N1CCc2oc3c(Cl)c(Cl)cc(-c4cc[nH]n4)c3c2C1 [Compound 34] | 25 to 49% |
| O=C(CO)N1CCc2c(sc3c(Cl)c(Cl)cc(-c4ccco4)c23)C1 [Compound 64] | 0 to 24% |
| Cn1c2c(c3c(O)cc(Cl)c(F)c31)CN(C(=O)CO)CC2 [Compound 1] | 0 to 24% |
| O=C(CO)N1CCc2oc3c(Cl)c(Cl)cc(-c4cn[nH]c4)c3c2C1 [Compound 29] | 25 to 49% |
| NCC(=O)N1CCc2c(oc3c(Cl)c(Cl)cc(-c4cncnc4)c23)C1 [Compound 39] | 0 to 24% |
| NCC(=O)N1CCc2c(sc3c(Cl)c(Cl)cc(-c4ccc(N)nc4)c23)C1 [Compound 75] | 0 to 24% |
| O=C(CO)N1CCc2c(sc3c(Cl)c(Cl)ccc23)C1 [Compound 58] | 0 to 24% |
| NCC(=O)N1CCc2c(sc3c(Cl)c(Cl)cc(-c4nccs4)c23)C1 [Compound 84] | 25 to 49% |
| NCC(=O)N1CCc2c(sc3c(Cl)c(Cl)cc(-c4cncs4)c23)C1 [Compound 87] | 0 to 24% |
| Cn1cc(-c2cc(Cl)c(Cl)c3sc4c(c23)CN(C(=O)CO)CC4)cn1 [Compound 48] | 0 to 24% |
| NCC(=O)N1CCc2c(sc3c(Cl)c(Cl)cc(-c4ncccn4)c23)C1 [Compound 89] | 0 to 24% |
| Cn1cc(-c2cc(Cl)c(Cl)c3c2c2c(n3C)CCN(C(=O)CN)C2)cn1 [Compound 11] | 75 to 100% |
